// values below are reported shrunken log2 fold change
Test system: Escherichia coli TOP10
Experiment: shrunken log2 fold change of peptide-encoding DNA abundance (4.5 h post-induction vs induction); higher = less antimicrobial activity (less host growth inhibition)
Settings: time post-induction: 4.5 h; library: site-saturation at positions 5, 18, 19, 20
Please give only the number in your answer, with no unit.

Consider the following illustrative entries.
CHAIN: RRIRARPPRLPRPRPRPDVHPRP
shrunken log2 fold change: 0.196
--
CHAIN: RRIRPRPPRLPRPRPRPWIGPRP
shrunken log2 fold change: -0.0305
--
CHAIN: RRIRKRPPRLPRPRPRPFVLPRP
shrunken log2 fold change: 0.389

Pending sequence:
Field shrunken log2 fold change (Escherichia coli TOP10), entry `RRIRMRPPRLPRPRPRPESAPRP` : 2.73

----------
Tested on: Escherichia coli TOP10;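 further: peptides expressed intracellularly from a pBAD plasmid library in pooled LB shake-flask culture, induced with 0.3% L-arabinose, DNA abundance read by NGS, three biological replicates, DESeq2 with apeglm shrinkage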
Experiment: shrunken log2 fold change of peptide-encoding DNA abundance (4.5 h post-induction vs induction); higher = less antimicrobial activity (less host growth inhibition)
Conditions: time post-induction: 4.5 h; library: site-saturation at positions 5, 18, 19, 20
Use -0.02 as the dividing line for shrunken log2 fold change, with the line itself on the Satisfied side and lower values as Not satisfied.

CHAIN: RRIRMRPPRLPRPRPRPKVPPRP
DISCRETE_LABEL: Satisfied
//
CHAIN: RRIRYRPPRLPRPRPRPHRYPRP
DISCRETE_LABEL: Not satisfied
//
CHAIN: RRIRYRPPRLPRPRPRPSFNPRP
DISCRETE_LABEL: Not satisfied

Can `RRIRKRPPRLPRPRPRPFRLPRP` be said to have shrunken log2 fold change at or above -0.02?
Satisfied

Can `RRIRKRPPRLPRPRPRPFMIPRP` be said to have shrunken log2 fold change at or above -0.02?
Not satisfied

Can `RRIRVRPPRLPRPRPRPFTEPRP` be said to have shrunken log2 fold change at or above -0.02?
Not satisfied

Can `RRIRHRPPRLPRPRPRPHYPPRP` be said to have shrunken log2 fold change at or above -0.02?
Not satisfied

Can `RRIRHRPPRLPRPRPRPDTSPRP` be said to have shrunken log2 fold change at or above -0.02?
Satisfied

Can `RRIRARPPRLPRPRPRPEWKPRP` be said to have shrunken log2 fold change at or above -0.02?
Satisfied

Can `RRIRMRPPRLPRPRPRPRHRPRP` be said to have shrunken log2 fold change at or above -0.02?
Satisfied

Can `RRIRERPPRLPRPRPRPCDVPRP` be said to have shrunken log2 fold change at or above -0.02?
Satisfied

Can `RRIRQRPPRLPRPRPRPYTIPRP` be said to have shrunken log2 fold change at or above -0.02?
Not satisfied

Can `RRIRQRPPRLPRPRPRPNGAPRP` be said to have shrunken log2 fold change at or above -0.02?
Satisfied

Can `RRIRKRPPRLPRPRPRPIKEPRP` be said to have shrunken log2 fold change at or above -0.02?
Satisfied

Can `RRIRGRPPRLPRPRPRPACIPRP` be said to have shrunken log2 fold change at or above -0.02?
Satisfied

Can `RRIRQRPPRLPRPRPRPDVIPRP` be said to have shrunken log2 fold change at or above -0.02?
Satisfied

Can `RRIRARPPRLPRPRPRPQQVPRP` be said to have shrunken log2 fold change at or above -0.02?
Satisfied

Can `RRIRKRPPRLPRPRPRPYASPRP` be said to have shrunken log2 fold change at or above -0.02?
Satisfied

Can `RRIRFRPPRLPRPRPRPGNDPRP` be said to have shrunken log2 fold change at or above -0.02?
Not satisfied

Can `RRIRPRPPRLPRPRPRPCKPPRP` be said to have shrunken log2 fold change at or above -0.02?
Not satisfied

Can `RRIRERPPRLPRPRPRPELFPRP` be said to have shrunken log2 fold change at or above -0.02?
Satisfied

Can `RRIRGRPPRLPRPRPRPFDSPRP` be said to have shrunken log2 fold change at or above -0.02?
Satisfied

Can `RRIRSRPPRLPRPRPRPSCNPRP` be said to have shrunken log2 fold change at or above -0.02?
Not satisfied

Can `RRIRIRPPRLPRPRPRPEGMPRP` be said to have shrunken log2 fold change at or above -0.02?
Not satisfied

Can `RRIRPRPPRLPRPRPRPDEAPRP` be said to have shrunken log2 fold change at or above -0.02?
Not satisfied
